Assayed system: Acetylcholinesterase (Homo sapiens, UniProt P22303)
Sequence (P22303 whole entry): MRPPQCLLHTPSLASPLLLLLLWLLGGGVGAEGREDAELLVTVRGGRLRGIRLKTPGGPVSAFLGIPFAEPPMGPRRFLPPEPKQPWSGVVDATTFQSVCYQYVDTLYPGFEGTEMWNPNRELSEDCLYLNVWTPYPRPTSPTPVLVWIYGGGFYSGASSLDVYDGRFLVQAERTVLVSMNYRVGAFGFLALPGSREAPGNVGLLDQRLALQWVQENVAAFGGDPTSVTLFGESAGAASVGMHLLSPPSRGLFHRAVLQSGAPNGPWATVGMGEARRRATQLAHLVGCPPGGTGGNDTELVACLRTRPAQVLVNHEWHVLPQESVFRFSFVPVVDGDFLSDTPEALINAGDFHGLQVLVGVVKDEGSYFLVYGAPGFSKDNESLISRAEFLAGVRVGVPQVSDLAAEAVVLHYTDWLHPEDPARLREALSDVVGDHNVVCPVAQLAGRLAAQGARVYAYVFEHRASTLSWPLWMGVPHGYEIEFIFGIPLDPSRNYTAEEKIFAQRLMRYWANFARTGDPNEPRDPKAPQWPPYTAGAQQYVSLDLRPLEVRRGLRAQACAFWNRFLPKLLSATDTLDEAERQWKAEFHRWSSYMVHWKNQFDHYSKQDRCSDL
Answer each item with its documented pIC50.
Note on units: pIC50 is unitless, being -log10 of a concentration expressed in mol/L.

Report pIC50 for CCOC(=O)C1=C(C)Nc2nc3c(c(N)c2C1c1ccc([N+](=O)[O-])cc1)CCCC3 (stereo not drawn) please.
6.51

And then CCOC(=O)C1=C(C)Nc2nc3c(c(N)c2C1c1ccc(C)cc1)CCCC3 (stereo not drawn) , what is it?
6.77

Entry to check: CCOC(=O)C1=C(C)Nc2nc3c(c(N)c2C1c1ccccc1)CCCC3 (stereo not drawn)
6.91

====

The listing below reports pIC50 for compounds tested on Acetylcholinesterase (Electrophorus electricus, UniProt O42275).
Sequence (O42275 whole entry): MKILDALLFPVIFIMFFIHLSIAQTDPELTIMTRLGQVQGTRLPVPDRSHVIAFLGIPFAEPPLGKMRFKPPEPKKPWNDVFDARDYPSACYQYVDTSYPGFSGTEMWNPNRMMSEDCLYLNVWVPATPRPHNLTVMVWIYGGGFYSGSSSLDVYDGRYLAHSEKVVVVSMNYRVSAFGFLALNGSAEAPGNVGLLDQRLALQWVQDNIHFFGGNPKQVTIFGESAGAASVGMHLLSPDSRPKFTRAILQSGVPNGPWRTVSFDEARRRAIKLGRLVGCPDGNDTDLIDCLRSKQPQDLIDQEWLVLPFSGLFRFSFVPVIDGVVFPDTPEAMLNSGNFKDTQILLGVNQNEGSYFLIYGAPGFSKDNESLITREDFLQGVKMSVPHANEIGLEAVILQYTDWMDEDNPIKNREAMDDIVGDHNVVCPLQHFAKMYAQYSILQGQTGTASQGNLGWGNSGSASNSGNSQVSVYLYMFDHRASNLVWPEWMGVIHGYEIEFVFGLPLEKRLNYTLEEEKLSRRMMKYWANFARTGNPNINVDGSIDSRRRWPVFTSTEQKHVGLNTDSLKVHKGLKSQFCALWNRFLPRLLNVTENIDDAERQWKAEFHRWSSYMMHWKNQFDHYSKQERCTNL
Value format note: pIC50 is -log10 of concentration (mol/L); just state the number.

Entry CCOC(=O)C1=C(C)Nc2nc3c(c(N)c2C1c1ccc([N+](=O)[O-])cc1)CCCC3 (stereo not drawn) has what pIC50?
6.22

For CCOC(=O)C1=C(C)Nc2nc3c(c(N)c2C1c1ccccc1)CCCC3 (stereo not drawn) then?
7.10

Same again, this time with CCOC(=O)C1=C(C)Nc2nc3c(c(N)c2C1c1ccc(C)cc1)CCCC3 (stereo not drawn)
7.04
